- Assay Protocol: physchem
Label rule met when chromatographic logP is at or above 4; anything below gets rule not met.

Completed entries (count: 4):
Cc1nc(C(F)(F)F)ccc1C(=O)Nc1ccc(Cl)c(C(=O)Nc2ccc(F)cc2)c1 rule not met
O=C(Nc1cccc(Cl)c1)c1cc(NC(=O)c2cnc(C(F)(F)C(F)(F)F)nc2C2CC2)ccc1Cl rule met
O=C(Nc1ccc(F)cc1)c1cc(NC(=O)c2cnc(C(F)(F)C(F)(F)F)nc2C(F)(F)C(F)(F)F)ccc1Cl rule met
Cc1nc(C(F)(F)F)ccc1C(=O)Nc1ccc(Cl)c(C(=O)Nc2cccc(Cl)c2)c1 rule not met

Ask | // inclusive: chromatographic logP at least 4? input: `Cn1nc(C(F)(F)C(F)(F)F)c(Br)c1C(=O)Nc1ccc(Cl)c(C(=O)Nc2ccc(Cl)cc2)c1`
Reply | rule met

====

- Assay Protocol: physchem
Here the recorded chromatographic logP is given for each entry.
Answer field: number only, no words.

Answered examples (3):
O=C(Nc1ccc(Cl)c(C(=O)Nc2ccc(F)cc2)c1)c1csc(C(F)(F)F)n1 3.35
O=C(Nc1cccc(Cl)c1)c1cc(NC(=O)c2cnc(C(F)(F)C(F)(F)F)nc2C(F)(F)F)ccc1Cl 4.32
Cn1nc(C(F)(F)C(F)(F)F)c(C(F)(F)F)c1C(=O)Nc1ccnc(C(=O)Nc2ccc(F)cc2)c1 4.3

Ask | Name the recorded chromatographic logP for `Cn1nc(Cn2nc(C(F)(F)C(F)(F)F)cc2C(F)(F)C(F)(F)F)c(C(F)(F)F)c1C(=O)Nc1ccc(Cl)c(C(=O)Nc2ccc(F)cc2)c1` .
Reply | 4.99

Ask | // query chromatographic logP value for entry `O=C(Nc1ccc(F)cc1)c1cc(NC(=O)c2cnc(C(F)(F)C(F)(F)F)nc2C2CC2)ccc1Cl`
Reply | 4.08
